system-tested: human ether-à-go-go-related gene (hERG) potassium channel (human, UniProt Q12809);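 note: peak tail current of the secondary pulse compared with the same well before compound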
Sequence (Q12809 whole entry, looked up): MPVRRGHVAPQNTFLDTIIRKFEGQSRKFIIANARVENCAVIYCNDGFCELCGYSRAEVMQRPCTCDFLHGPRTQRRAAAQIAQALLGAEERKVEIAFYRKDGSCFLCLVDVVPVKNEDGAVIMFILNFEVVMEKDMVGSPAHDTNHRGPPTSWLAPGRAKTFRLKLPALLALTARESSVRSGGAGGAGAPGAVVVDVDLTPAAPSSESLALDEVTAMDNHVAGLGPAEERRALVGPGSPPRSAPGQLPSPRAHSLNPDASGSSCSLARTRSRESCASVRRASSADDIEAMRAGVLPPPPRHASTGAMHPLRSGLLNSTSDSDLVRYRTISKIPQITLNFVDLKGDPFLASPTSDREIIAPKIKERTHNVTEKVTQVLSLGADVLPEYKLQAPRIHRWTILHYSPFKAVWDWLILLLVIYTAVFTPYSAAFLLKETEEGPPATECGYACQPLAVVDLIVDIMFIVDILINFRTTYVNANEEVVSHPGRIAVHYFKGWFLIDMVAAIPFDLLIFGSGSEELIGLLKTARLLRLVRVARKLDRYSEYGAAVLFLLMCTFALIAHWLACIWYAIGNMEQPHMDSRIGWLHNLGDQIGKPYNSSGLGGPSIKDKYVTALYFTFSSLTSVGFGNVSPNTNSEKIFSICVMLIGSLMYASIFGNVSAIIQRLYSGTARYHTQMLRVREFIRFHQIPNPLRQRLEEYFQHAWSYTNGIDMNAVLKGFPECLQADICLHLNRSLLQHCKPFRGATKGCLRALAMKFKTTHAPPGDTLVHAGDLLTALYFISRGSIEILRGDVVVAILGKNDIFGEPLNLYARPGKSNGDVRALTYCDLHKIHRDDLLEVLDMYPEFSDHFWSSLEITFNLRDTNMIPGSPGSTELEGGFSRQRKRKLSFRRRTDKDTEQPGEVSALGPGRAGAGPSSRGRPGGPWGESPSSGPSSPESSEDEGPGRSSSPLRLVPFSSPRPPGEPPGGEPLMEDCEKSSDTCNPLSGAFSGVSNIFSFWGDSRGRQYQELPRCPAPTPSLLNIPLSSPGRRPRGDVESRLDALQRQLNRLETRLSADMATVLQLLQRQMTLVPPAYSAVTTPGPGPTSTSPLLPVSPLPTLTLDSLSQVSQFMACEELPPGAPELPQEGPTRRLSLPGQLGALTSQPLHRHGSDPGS
assay-method-text: primary screen, population patch clamp on CHO cells stably expressing hERG; higher = less effect of the substance
In all, about 310,000 compounds went through this assay and about 14,000 (4.5%) showed an effect of 50% or more. Effects have a minus sign here. This excerpt belongs to a sample that is enriched for strong results.
quantity-kind: hERG current change (%, negative = inhibition) at 10uM (%)
// units = %; emit number, no label

// query Fill in the blank: the reported hERG current change (%, negative = inhibition) at 10uM of O=C(O)c1cccc([N+](=O)[O-])c1C(=O)Nc1cccc2ccccc12 is ____.
// result 21.9

// query Fill in the blank: the reported hERG current change (%, negative = inhibition) at 10uM of Cc1ccc(C(=O)Nc2cc(C(C)C)c(O)c(C(C)C)c2)cc1 is ____.
// result -4.12

// query Fill in the blank: the reported hERG current change (%, negative = inhibition) at 10uM of C=CCOc1ccc(CNCCc2ccc(S(N)(=O)=O)cc2)cc1.Cl is ____.
// result -81.4

// query Fill in the blank: the reported hERG current change (%, negative = inhibition) at 10uM of COc1ccccc1CN(C)C(=O)c1cc(-c2cc(OC)c(OC)c(OC)c2)nc2ccccc12 is ____.
// result 12.9

// query Fill in the blank: the reported hERG current change (%, negative = inhibition) at 10uM of O=C(CCN1C(=O)COc2ccccc21)NCCCN1CCN(c2ccccc2F)CC1 is ____.
// result -42.7

// query Fill in the blank: the reported hERG current change (%, negative = inhibition) at 10uM of O=C(CN1C(=O)COc2ccccc21)NCCN1CCC(Cc2ccccc2)CC1 is ____.
// result -56.6

// query Fill in the blank: the reported hERG current change (%, negative = inhibition) at 10uM of Cn1ccnc1/C(=N\NC(=O)c1ccccc1)c1cccc([N+](=O)[O-])c1 is ____.
// result -68.6

// query Fill in the blank: the reported hERG current change (%, negative = inhibition) at 10uM of COCCCNC(=O)C1CCN(C(=O)c2oc3cc4sc(N(C)C)nc4cc3c2C)CC1 is ____.
// result 7.03

// query Fill in the blank: the reported hERG current change (%, negative = inhibition) at 10uM of O=C(CCN1C(=O)COc2ccccc21)NCCN1CCN(c2ccccc2F)CC1 is ____.
// result -33.5

// query Fill in the blank: the reported hERG current change (%, negative = inhibition) at 10uM of COC(=O)CSc1nc(C2CC2)nc2ccccc12 is ____.
// result -11.5

// query Fill in the blank: the reported hERG current change (%, negative = inhibition) at 10uM of O=C(C1CCCC1)N1CCN=C1SCc1cccc([N+](=O)[O-])c1 is ____.
// result -19.3

// query Fill in the blank: the reported hERG current change (%, negative = inhibition) at 10uM of CC(=O)N1CCN(CC(=O)Nc2c(Cl)cc(Cl)cc2Cl)CC1 is ____.
// result -54.2

// query Fill in the blank: the reported hERG current change (%, negative = inhibition) at 10uM of O=C(CN1CCOCC1)Nc1c(Cl)cc(Cl)cc1Cl is ____.
// result -2.17

// query Fill in the blank: the reported hERG current change (%, negative = inhibition) at 10uM of NC(=O)c1cccc([N+](=O)[O-])c1 is ____.
// result 5.64

// query Fill in the blank: the reported hERG current change (%, negative = inhibition) at 10uM of O=C1C=C(NCc2ccc(Cl)cc2)CC(c2ccco2)C1 (stereo not drawn) is ____.
// result -82.2

// query Fill in the blank: the reported hERG current change (%, negative = inhibition) at 10uM of S=C(NCc1ccccn1)Nc1ccccc1 is ____.
// result 16.3

// query Fill in the blank: the reported hERG current change (%, negative = inhibition) at 10uM of O=C1C=C(Nc2ccc(Cl)cc2)CC(c2ccc(Cl)cc2)C1 (stereo not drawn) is ____.
// result -2.27

// query Fill in the blank: the reported hERG current change (%, negative = inhibition) at 10uM of O=C(CCN1C(=O)COc2ccccc21)NCCN1CCN(c2cccc(Cl)c2)CC1 is ____.
// result -56.5

// query Fill in the blank: the reported hERG current change (%, negative = inhibition) at 10uM of O=C(CCN1C(=O)COc2ccccc21)NCCCN1CCN(c2ccc(F)cc2)CC1 is ____.
// result -63.7

// query Fill in the blank: the reported hERG current change (%, negative = inhibition) at 10uM of CCOc1ccc(OCCC(=O)OCC(=O)NCCc2ccc(S(N)(=O)=O)cc2)cc1 is ____.
// result -4.49

// query Fill in the blank: the reported hERG current change (%, negative = inhibition) at 10uM of C/C(=N\NC(=O)c1ccc([N+](=O)[O-])cc1)c1cccc([N+](=O)[O-])c1 is ____.
// result 5.82

// query Fill in the blank: the reported hERG current change (%, negative = inhibition) at 10uM of O=C(CN1CCCCCC1)Nc1c(Cl)cc(Cl)cc1Cl is ____.
// result -5.28

// query Fill in the blank: the reported hERG current change (%, negative = inhibition) at 10uM of O=C1C=C(Nc2ccc(Cl)cc2)CC(c2ccco2)C1 (stereo not drawn) is ____.
// result -1.85

// query Fill in the blank: the reported hERG current change (%, negative = inhibition) at 10uM of COc1ccccc1CN(C)C(=O)c1cc(-c2cccs2)nc2ccccc12 is ____.
// result 4.13

// query Fill in the blank: the reported hERG current change (%, negative = inhibition) at 10uM of N#Cc1ccc(NC(=O)CN2CCCCCC2)cc1Cl is ____.
// result -21.3

// query Fill in the blank: the reported hERG current change (%, negative = inhibition) at 10uM of CCOC(=O)N1CCN(C(=O)CN(C)S(=O)(=O)c2ccc(Cl)cc2)CC1 is ____.
// result 8.13

// query Fill in the blank: the reported hERG current change (%, negative = inhibition) at 10uM of COc1ccccc1CN(C)C(=O)c1cc(C)nc2ccccc12 is ____.
// result -65.1

// query Fill in the blank: the reported hERG current change (%, negative = inhibition) at 10uM of CN(C)S(=O)(=O)c1cccc(NC(=S)N/N=C/C(c2ccccc2)c2ccccc2)c1 is ____.
// result 1.1

// query Fill in the blank: the reported hERG current change (%, negative = inhibition) at 10uM of COc1cccc(C(=O)N/N=C(/c2ccccc2)c2ccccn2)c1 is ____.
// result 6.88

// query Fill in the blank: the reported hERG current change (%, negative = inhibition) at 10uM of COc1ccc(CNc2ccc(S(N)(=O)=O)cc2)cc1 is ____.
// result -52.6

// query Fill in the blank: the reported hERG current change (%, negative = inhibition) at 10uM of CCN(CC)CCCNC(=O)CSc1nc2c(c(C(F)(F)F)n1)CCc1ccccc1-2 is ____.
// result -52.2

// query Fill in the blank: the reported hERG current change (%, negative = inhibition) at 10uM of O=C1C=C(NCc2ccco2)CC(c2ccc(Cl)cc2)C1 (stereo not drawn) is ____.
// result -61.5

// query Fill in the blank: the reported hERG current change (%, negative = inhibition) at 10uM of COc1ccc(N2CCN(CCNC(=O)CCN3C(=O)COc4ccccc43)CC2)cc1 is ____.
// result -47

// query Fill in the blank: the reported hERG current change (%, negative = inhibition) at 10uM of O=C(CN1C(=O)COc2ccccc21)NCCN1CCOCC1 is ____.
// result 11.3

// query Fill in the blank: the reported hERG current change (%, negative = inhibition) at 10uM of O=C1C=C(Nc2cccc(Cl)c2)CC(c2ccco2)C1 (stereo not drawn) is ____.
// result -4.15

// query Fill in the blank: the reported hERG current change (%, negative = inhibition) at 10uM of CC(C)c1ccccc1OCCCCCN1CCOCC1 is ____.
// result -13.5

// query Fill in the blank: the reported hERG current change (%, negative = inhibition) at 10uM of CCOc1ccc(Nc2oc(-c3ccco3)nc2C#N)cc1 is ____.
// result -1.69

// query Fill in the blank: the reported hERG current change (%, negative = inhibition) at 10uM of O=S(=O)(c1ccccc1)N1CCCCC1c1cccnc1 (stereo not drawn) is ____.
// result 2.3

// query Fill in the blank: the reported hERG current change (%, negative = inhibition) at 10uM of O=C(N/N=C(\c1ccccc1)c1ccccn1)c1cccc([N+](=O)[O-])c1 is ____.
// result -65.6

// query Fill in the blank: the reported hERG current change (%, negative = inhibition) at 10uM of O=C1C=C(NCc2ccco2)CCC1 is ____.
// result 16.7

// query Fill in the blank: the reported hERG current change (%, negative = inhibition) at 10uM of O=C(CN1C(=O)COc2ccccc21)NCCN1CCCC1 is ____.
// result 13.6

// query Fill in the blank: the reported hERG current change (%, negative = inhibition) at 10uM of O=C(NNC(=O)c1ccccn1)c1cccc([N+](=O)[O-])c1 is ____.
// result 8.7
